Data provenance is the FLAb antibody collection.

- Assay comment: patients with anti-drug antibodies; higher = more immunogenic
Observable: patients with anti-drug antibodies (%)
# unit: % | format: bare number

// below: answered proteins
- Protein: "unnamed (protein) chain 1: QVQLKESGPGLVAPSQSLSITCTVSGFSLTDYGVRWIRQPPGKGLEWLGVIWGGGSTYYNSALKSRLSISKDNSKSQVFLKMNSLQTDDTAMYYCAKEKRRGYYYAMDYWGQGTSVTVSS chain 2: ENVLTQSPAIMSASPGEKVTMTCRASSSVSSSYLHWYQQKSGASPKLWIYSTSNLASGVPARFSGSGSGTSYSLTISSVEAEDAATYYCQQYSGYPLTFGGGTKLEIK"
  Recorded result: 33.3
- Protein: "unnamed (protein) chain 1: EVQLVESGGGLVQPGGSLRLSCAASGFSFSDFAMSWVRQAPGKGLEWVATIGRVAFHTYYPDSMKGRFTISRDNSKNTLYLQMNSLRAEDTAVYYCARHRGFDVGHFDFWGQGTLVTVSS chain 2: DIQMTQSPSSLSASVGDRVTITCRSSETLVHSSGNTYLEWYQQKPGKAPKLLIYRVSNRFSGVPSRFSGSGSGTDFTLTISSLQPEDFATYYCFQGSFNPLTFGQGTKVEIK"
  Recorded result: 18

Lab note: next protein to report on.
# get_value(readout='patients with anti-drug antibodies', item= unnamed (protein) chain 1: EVQMVQSGAEVKKPGEPLKISCKGSGYKFGTHWIGWVRQRPGKGLEWMGIIHPADSETKYSPSFQGQVSFSADKSSNTAYLHWSTLRASDTAMYYCARRSGSSSWYALDFWGQGTMVTVSS chain 2: QSVLTQSPSASGTPGQRVTISCSGGSSNIGSNTVNWYQQFPGAAPKLLIYTNNQRPSGVPDRFSGSKSGTSASLAISGLQSEDEADYYCATWDDSLNGLYVFGTGTKVTVL ) 2.1
